Assignment: determine reported melting point for the given compounds.

Record excerpt, results attached:
COc1ccc(-c2nc3cc(OC)cc(OC)c3c(=O)[nH]2)c(NCC2CCN(C)C2)c1 (stereo not shown) = 233 to 235 °C
CCNc1cc(OC)c2c(=O)[nH]c(-c3ncccc3NC3CCN(C(C)C)CC3)nc2c1 = 219 to 221 °C

For each listed entry, give its melting point.
1. COc1cc(OC)c2c(=O)[nH]c(-c3ncccc3NC3CCN(C(=O)N(C)C)CC3)nc2c1
2. COc1cc(OC)c2c(=O)[nH]c(-c3ncccc3NC3CCN(C(C)C)CC3)nc2c1

1: 195 to 197 °C; 2: 170 to 172 °C

----------
For each entry below, report its melting point value.

The examples below pair each entry with its known result.
COc1cnc(-c2nc3cc(OC)cc(OC)c3c(=O)[nH]2)c(NC2CCN(C(=O)C(C)C)CC2)c1 = 192 to 193 °C
COc1ccc(-c2nc3cc(OC)cc(OC)c3c(=O)[nH]2)c(NCCN2CCNCC2)c1 = 210 to 212 °C
COc1cnc(-c2nc3cc(OC)cc(OC)c3c(=O)[nH]2)c(NC2CCN(C(C)C)CC2)c1 = 207 to 208 °C
COc1cc(OC)c2c(=O)[nH]c(-c3ncc(OCCO)cc3NC3CCN(C(=O)C(C)C)CC3)nc2c1 = 173 to 176 °C
COc1cc(OC)c2c(=O)[nH]c(-c3ncccc3NCCCNC(=O)C(C)C)nc2c1 = 230 to 231 °C
COc1ccc(-c2nc3cc(OC)cc(OC)c3c(=O)[nH]2)c(NCC2CCN(C(C)C)C2)c1 (centres unmarked) = 228 to 230 °C

Fill in melting point for each of the 2 molecules listed.
1. COc1cc(OC)c2c(=O)[nH]c(-c3ncccc3NCCCNC(C)C)nc2c1
2. COc1ccc(-c2nc3cc(OC)cc(OC)c3c(=O)[nH]2)c(NC2CCN(C(C)C)CC2)c1

1: 121 to 122 °C; 2: 248 to 250 °C

----------
Target: Brd4 bromodomain 1 (BRD4(1)) (Homo sapiens)
Construct: made in house; host or cells: E. coli BL21(DE3)
Assay: Inhibition of tetra-acetylated histone H4 binding to BET bromodomains (TR-FRET)
Parameters: key: Active: Compounds with an IC50 value less than 30 μM were deemed to be active.; Not Active: Compounds with an IC50 value less than 30 μM were deemed to be active
Conditions: first bromodomain of Brd4, tetra-acetylated histone H4 peptide
quantity name: FRET activity BRD4(1)

COc1ccc(-c2nc3cc(OC)cc(OC)c3c(=O)[nH]2)c(NC2CCN(C(=O)C(C)C)CC2)c1 = Active
COc1cc(OC)c2c(=O)[nH]c(-c3ncccc3NC3CCN(C(=O)N(C)C)CC3)nc2c1 = Active
COc1cc(OC)c2c(=O)[nH]c(-c3ncccc3NC3CCN(C(=O)C(=O)N(C)C)CC3)nc2c1 = Active
CCNC(=O)N1CCC(Nc2cccnc2-c2nc3cc(OC)cc(OC)c3c(=O)[nH]2)CC1 = Active

Batch: FRET activity BRD4(1) for all items listed.
1. COc1ccc(-c2nc3cc(OC)cc(OC)c3c(=O)[nH]2)c(NCCN2CCCCC2)c1
2. COc1ccc(-c2nc3cc(OC)cc(OC)c3c(=O)[nH]2)c(NCC2CCN(C)C2)c1 (centres unmarked)
3. COc1ccc(-c2nc3cc(OC)cc(OC)c3c(=O)[nH]2)c(NCCN2CCN(C)CC2)c1
4. COC(=O)C(=O)N1CCC(Nc2cccnc2-c2nc3cc(OC)cc(OC)c3c(=O)[nH]2)CC1
5. CCNc1cc(OC)c2c(=O)[nH]c(-c3ncccc3NC3CCN(C(C)C)CC3)nc2c1
6. COc1ccc(-c2nc3cc(OC)cc(OC)c3c(=O)[nH]2)c(N[C@H]2CC[C@H](C(C)(C)O)CC2)c1
7. COc1cc(OC)c2c(=O)[nH]c(-c3ncccc3NC3CCN(C(=O)C(F)(F)F)CC3)nc2c1

1: Active; 2: Active; 3: Active; 4: Active; 5: Active; 6: Active; 7: Active

Report FRET activity BRD4(1) for every entry below.
1. COc1ccc(-c2nc3cc(OC)cc(OC)c3c(=O)[nH]2)c(C(=O)N2CCN(C)CC2)c1
2. COc1ccc(-c2nc3cc(OC)cc(OC)c3c(=O)[nH]2)c(NC2CCN(C(C)C)CC2)c1
3. COc1cc(OC)c2c(=O)[nH]c(-c3ncc(OCCNC(C)C)cc3NC3CCN(C(C)C)CC3)nc2c1
4. COc1cncc2nc(-c3ncccc3NC3CCN(C(C)C)CC3)[nH]c(=O)c12
5. COc1cc(OC)c2c(=O)[nH]c(-c3ccccc3NC3CCN(C(C)C)CC3)nc2c1

Active
Active
Active
Active
Active

Hello, I would appreciate it if you could give FRET activity BRD4(1) for each entry below.
1. COc1cnc(-c2nc3cc(OC)cc(OC)c3c(=O)[nH]2)c(NC2CCN(C(C)C)CC2)c1
2. COc1ccc(-c2nc3cc(OC)cc(OC)c3c(=O)[nH]2)c(NCCCNC(C)C)c1
3. COc1ccc(-c2nc3cc(OC)cc(OC)c3c(=O)[nH]2)c(NCCN2CCNCC2)c1
4. COc1cc(OC)c2c(=O)[nH]c(-c3ncccc3NC3CCN(C(=O)C(C)O)CC3)nc2c1 (centres unmarked)
5. COc1cc(OC)c2c(=O)[nH]c(-c3ncc(OCCN4CCCC4)cc3NC3CCN(C(C)C)CC3)nc2c1
6. COc1cc(OC)c2c(=O)[nH]c(-c3ncccc3NC3CCN(C(C)=O)CC3)nc2c1

["Active", "Active", "Active", "Active", "Active", "Active"]

----------
Please provide measured melting point for the entries that follow.

COc1ccc(-c2nc3cc(OC)cc(OC)c3c(=O)[nH]2)c(NCCN2CCN(C(C)C)CC2)c1 = 227 to 228 °C

For each of the items listed, what is its melting point?
1. COc1cc(OC)c2c(=O)[nH]c(-c3ncc(OCCO)cc3NC3CCN(C(C)C)CC3)nc2c1
2. COc1cc(OC)c2c(=O)[nH]c(-c3ncccc3NC3CCN(C(=O)C(C)(C)C)CC3)nc2c1
3. COc1ccc(-c2nc3cc(OC)cc(OC)c3c(=O)[nH]2)c([S+]([O-])C2CCN(C)CC2)c1 (stereo not shown)

231 to 233 °C
209 to 210 °C
263 to 265 °C

----------
Molecular target: Brd4 bromodomain 1 (BRD4(1)) (Homo sapiens)
Construct: made in house; host or cells: E. coli BL21(DE3)
Experiment: Inhibition of tetra-acetylated histone H4 binding to BET bromodomains (TR-FRET)
Parameters: key: Active: Compounds with an IC50 value less than 30 μM were deemed to be active.; Not Active: Compounds with an IC50 value less than 30 μM were deemed to be active
Details: first bromodomain of Brd4, tetra-acetylated histone H4 peptide
quantity name: FRET activity BRD4(1)

Field: example entries. Status: answers known.
COc1ccc(-c2nc3cc(OC)cc(OC)c3c(=O)[nH]2)c(NCC2CCN(C(C)C)C2)c1 (stereo not drawn) = Active
COc1cc(OC)c2c(=O)[nH]c(-c3ccc(Cl)cc3NC3CCN(C(=O)C(C)C)CC3)nc2c1 = Active
COc1cc(OC)c2c(=O)[nH]c(-c3ncc(OCCNC4CCN(C(C)C)CC4)cc3NC3CCN(C(C)C)CC3)nc2c1 = Active
COc1cc(OC)c2c(=O)[nH]c(-c3ncccc3NC3CCN(C(=O)C(C)C)CC3)nc2c1 = Active
COc1ccc(NC2CCN(C(C)C)CC2)c(-c2nc3cc(OC)cc(OC)c3c(=O)[nH]2)c1 = Active
COc1ccc(-c2nc3cc(OC)cc(OC)c3c(=O)[nH]2)c(NCCN2CCN(C(C)C)CC2)c1 = Active
COc1ccc(-c2nc3cc(OC)cc(OC)c3c(=O)[nH]2)c(NC2CCC(C)(C)CC2)c1 = Active
COc1cc(OC)c2c(=O)[nH]c(-c3ncccc3NC3CCN(C(C)C)CC3)nc2c1 = Active
COc1cc(OC)c2c(=O)[nH]c(-c3ncc(OCCO)cc3NC3CCN(C(=O)C(C)C)CC3)nc2c1 = Active
COc1cnc(-c2nc3cc(OC)cc(OC)c3c(=O)[nH]2)c(NC2CCN(C)CC2)c1 = Active

The following molecules each have a reported value; give each one's FRET activity BRD4(1).
1. COc1cc(OC)c2c(=O)[nH]c(-c3ncccc3NC3CCN(C(C)(C)CO)CC3)nc2c1
2. COc1ccc(-c2nc3cc(OC)cc(OC)c3c(=O)[nH]2)c(NC2CCN(Cc3ccccc3)CC2)c1
3. COc1cc(OC)c2c(=O)[nH]c(-c3ncccc3NCCN3CCOCC3)nc2c1
4. COc1cc(OC)c2c(=O)[nH]c(-c3ncccc3NC3CCN(C(=O)C(C)(C)C)CC3)nc2c1
5. COc1ccc(-c2nc3cc(OC)cc(OC)c3c(=O)[nH]2)c(NC2CCN(C)CC2)c1
6. COc1cc(N)cc2nc(-c3ncccc3NC3CCN(C(C)C)CC3)[nH]c(=O)c12
7. COc1ccc(-c2nc3cc(OC)cc(OC)c3c(=O)[nH]2)c(NCCNC(C)C)c1

Active
Active
Active
Active
Active
Active
Active

Find the recorded FRET activity BRD4(1) belonging to COc1ccc(-c2nc3cc(OC)cc(OC)c3c(=O)[nH]2)c(NC2CCOCC2)c1 and report it. Active
